Each record here notes measured Ki.
- target_entity: UniProtKB P28161
- Sequence (P28161 whole entry): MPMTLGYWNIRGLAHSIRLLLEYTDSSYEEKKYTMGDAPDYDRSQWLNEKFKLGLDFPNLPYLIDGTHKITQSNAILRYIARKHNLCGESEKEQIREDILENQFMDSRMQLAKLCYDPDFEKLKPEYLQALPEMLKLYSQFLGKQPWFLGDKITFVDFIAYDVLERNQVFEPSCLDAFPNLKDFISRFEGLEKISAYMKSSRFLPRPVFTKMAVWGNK
- procedure_text: Inhibitory activity was measured on recombinant human Glutathione S-transferase Mu 2
Numbered stars: 1 amine (or outer) side, 2 acyl side, 3 side chain; on linkers, the order of the positions; unused ones are H or OH. Square brackets hold non-standard residues; d marks the D form. Peptide text beside a SMILES is read from it. * marks the point of attachment. γGlu = O=C(O)[CH](CCC(=O)[*:2])N[*:1]; Phg = N[CH](C(=O)O)c1ccccc1; Bn = c1ccc(C*)cc1
measured_endpoint: Ki (µM)

compound="NC(CCC(=O)NC(CSCc1ccc(Cl)cc1)C(=O)NC(C(=O)O)c1ccccc1)C(=O)O (configuration not stated)" units=µM experimental_result=48.3
compound="CCCCCCSCC(NC(=O)CCC(N)C(=O)O)C(=O)NCCC(=O)O (configuration not stated)" units=µM experimental_result=42
compound="Cc1ccc(CSCC(NC(=O)CCC(N)C(=O)O)C(=O)NCCC(=O)O)cc1 (configuration not stated)" units=µM experimental_result=20
compound="NC(CCC(=O)NC(CSCc1ccccc1)C(=O)NC(C(=O)O)c1ccccc1)C(=O)O (configuration not stated) (γGlu-Cys(Bn)-[Phg]-OH; configuration not given here)" units=µM experimental_result=184
compound="CCCCCCSCC(NC(=O)CCC(N)C(=O)O)C(=O)NCC(=O)O (configuration not stated)" units=µM experimental_result=36
compound="NC(CCC(=O)NC(CSCc1ccccc1)C(=O)NCCC(=O)O)C(=O)O (configuration not stated)" units=µM experimental_result=26
compound="CCCCCCSCC(NC(=O)CCC(N)C(=O)O)C(=O)NC(C(=O)O)c1ccccc1 (configuration not stated)" units=µM experimental_result=97

---

- target_entity: Glutathione S-transferase A1 (Homo sapiens)
- procedure_text: Inhibitory activity was measured on recombinant human Glutathione-S-transferase A1 enzyme
pKi: −log10 of the molar value. Numbered stars: 1 amine (or outer) side, 2 acyl side, 3 side chain; on linkers, the order of the positions; unused ones are H or OH. Square brackets hold non-standard residues; d marks the D form. Peptide text beside a SMILES is read from it. * marks the point of attachment. γGlu = O=C(O)[CH](CCC(=O)[*:2])N[*:1]; Phg = N[CH](C(=O)O)c1ccccc1; Bn = c1ccc(C*)cc1
pKi values, listed per item
measured_endpoint: pKi

compound="CCCCCCSCC(NC(=O)CCC(N)C(=O)O)C(=O)NC(C(=O)O)c1ccccc1 (centres undefined)" target_entity="Glutathione S-transferase A1 (Homo sapiens)" experimental_result=5.24
compound="NC(CCC(=O)NC(CSCc1ccccc1)C(=O)NC(C(=O)O)c1ccccc1)C(=O)O (centres undefined) (γGlu-Cys(Bn)-[Phg]-OH; configuration not given here)" target_entity="Glutathione S-transferase A1 (Homo sapiens)" experimental_result=4.61
compound="Cc1ccc(CSCC(NC(=O)CCC(N)C(=O)O)C(=O)NCCC(=O)O)cc1 (centres undefined)" target_entity="Glutathione S-transferase A1 (Homo sapiens)" experimental_result=4.37
compound="NC(CCC(=O)NC(CSCc1ccccc1)C(=O)NCCC(=O)O)C(=O)O (centres undefined)" target_entity="Glutathione S-transferase A1 (Homo sapiens)" experimental_result=3.44

---

- target_entity: Glutathione S-transferase A1 (Homo sapiens, UniProt P08263)
- Sequence (P08263 whole entry): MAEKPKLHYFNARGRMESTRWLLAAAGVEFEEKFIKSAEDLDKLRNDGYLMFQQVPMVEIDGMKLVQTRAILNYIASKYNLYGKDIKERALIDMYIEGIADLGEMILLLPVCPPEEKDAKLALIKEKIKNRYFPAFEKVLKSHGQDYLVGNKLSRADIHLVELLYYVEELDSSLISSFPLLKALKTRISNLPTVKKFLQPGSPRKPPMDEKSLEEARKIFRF
- procedure_text: Inhibitory activity was measured on recombinant human Glutathione-S-transferase A1 enzyme
pKi: −log10 of the molar value.
measured_endpoint: pKi

molecule="CCCCCCSCC(NC(=O)CCC(N)C(=O)O)C(=O)NCCC(=O)O (stereo not drawn)" target_entity="Glutathione S-transferase A1 (Homo sapiens, UniProt P08263)" measured_endpoint=pKi experimental_result=4.37
molecule="NC(CCC(=O)NC(CSCc1ccc(Cl)cc1)C(=O)NC(C(=O)O)c1ccccc1)C(=O)O (stereo not drawn)" target_entity="Glutathione S-transferase A1 (Homo sapiens, UniProt P08263)" measured_endpoint=pKi experimental_result=4.83
molecule="CCCCCCSCC(NC(=O)CCC(N)C(=O)O)C(=O)NCC(=O)O (stereo not drawn)" target_entity="Glutathione S-transferase A1 (Homo sapiens, UniProt P08263)" measured_endpoint=pKi experimental_result=6.08
